Listed here: items and their measured Her2 level.
- subject_of_test: Receptor tyrosine-protein kinase erbB-2 (Homo sapiens) (UniProt P04626)
- Sequence (P04626 whole entry, looked up): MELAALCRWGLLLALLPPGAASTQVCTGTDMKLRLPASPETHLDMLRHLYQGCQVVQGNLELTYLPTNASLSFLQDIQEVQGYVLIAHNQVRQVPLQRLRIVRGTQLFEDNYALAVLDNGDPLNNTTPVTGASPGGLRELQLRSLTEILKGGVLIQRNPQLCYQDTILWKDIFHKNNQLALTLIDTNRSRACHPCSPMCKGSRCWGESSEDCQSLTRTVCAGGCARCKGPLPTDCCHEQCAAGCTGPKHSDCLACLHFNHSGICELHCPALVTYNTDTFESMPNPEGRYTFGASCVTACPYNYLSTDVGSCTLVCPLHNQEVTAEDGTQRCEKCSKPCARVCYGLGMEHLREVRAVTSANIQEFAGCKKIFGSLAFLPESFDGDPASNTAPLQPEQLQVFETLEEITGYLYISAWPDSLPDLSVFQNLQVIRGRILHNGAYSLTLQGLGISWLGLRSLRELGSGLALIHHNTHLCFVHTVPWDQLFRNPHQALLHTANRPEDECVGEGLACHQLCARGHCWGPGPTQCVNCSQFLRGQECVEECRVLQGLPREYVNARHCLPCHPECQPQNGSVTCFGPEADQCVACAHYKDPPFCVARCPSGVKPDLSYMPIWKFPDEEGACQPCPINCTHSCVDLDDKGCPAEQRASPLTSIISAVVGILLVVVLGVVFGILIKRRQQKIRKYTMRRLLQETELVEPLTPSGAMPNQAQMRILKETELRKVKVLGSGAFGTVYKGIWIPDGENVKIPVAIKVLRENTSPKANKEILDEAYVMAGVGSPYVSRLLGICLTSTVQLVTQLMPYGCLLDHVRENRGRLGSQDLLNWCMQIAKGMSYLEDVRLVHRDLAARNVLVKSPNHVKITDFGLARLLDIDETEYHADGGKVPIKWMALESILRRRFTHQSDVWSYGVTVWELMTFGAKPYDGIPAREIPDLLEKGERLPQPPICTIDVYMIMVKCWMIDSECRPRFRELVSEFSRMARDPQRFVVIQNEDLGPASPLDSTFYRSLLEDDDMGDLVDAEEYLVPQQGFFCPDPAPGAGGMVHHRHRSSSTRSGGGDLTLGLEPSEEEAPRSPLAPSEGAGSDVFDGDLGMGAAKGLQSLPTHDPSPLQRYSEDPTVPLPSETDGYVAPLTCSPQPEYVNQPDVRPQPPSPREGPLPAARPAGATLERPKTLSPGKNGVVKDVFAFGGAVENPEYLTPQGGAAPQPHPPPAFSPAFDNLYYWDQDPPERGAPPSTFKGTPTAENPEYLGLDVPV
- measurement_description: reducers of endogenous Her2 protein level, primary screen, SKBR3 breast tumor cells, AlphaScreen, ATP viability (AID 461);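 note: lower value means less Her2 protein in the cells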
- measurement_parameters: 18-24 h, at 10 µM, stronger effect = lower value
Activity calls are given as the source filed them.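 Rule for the calls: active = Her2 level under about 52% in both replicate screens, with viability over 70% of control (limit read from the data); inconclusive = Her2 under the limit in one screen only, or viability under 70%; inactive = Her2 level above the set limit.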

{"columns": ["compound", "Her2 level"],
 "data": [
  ["O=C(c1cccc(Cl)c1)N1CCN(Cc2ccncc2)CC1", "96.5% (inactive)"],
  ["CCOC(=O)C1CCCN(CCC(C)c2ccccc2)C1 (stereo unspecified)", "84.5% (inactive)"],
  ["CN(C)CCCNC(=O)c1ccc(CN(c2ccccc2)S(C)(=O)=O)cc1", "96% (inactive)"],
  ["CCc1nnc(NC(=O)CSc2nnc3scc(-c4ccc(C)cc4)n23)s1", "95.5% (inactive)"],
  ["Cc1cc(NC(=O)CCCN2C(=O)c3cccnc3C2=O)no1", "95.5% (inactive)"],
  ["O=C(C1CCCN(S(=O)(=O)c2cccs2)C1)N1CCc2ccccc2C1 (stereo unspecified)", "75.5% (inactive)"]
]}
